Data provenance: patent US11718611B2

Assay: Pharmacokinetic experiment in rats
Format: in vivo, SD rat
Settings: rat, plasma, po; male SD rats, i.g., 3 mg/kg
Measured metric: AUC(0-t) (ng·h/mL)

{"Compound": "CC1(C)CCC(CN2CCN(c3ccc(C(=O)NS(=O)(=O)c4ccc(NCC5CCOCC5)c([N+](=O)[O-])c4)c(Oc4cnc5[nH]ccc5c4)c3)CC2)=C(c2ccc(Cl)cc2)C1 [Venetoclax, reference compound]", "Observed value": 3060}
{"Compound": "[2H]C([2H])(Nc1ccc(S(=O)(=O)NC(=O)c2ccc(N3CCN(CC4=C(c5ccc(Cl)cc5)CC(C)(C)CC4)CC3)cc2Oc2cnc3[nH]ccc3c2)cc1[N+](=O)[O-])C1CCOCC1 (single isomer, unassigned)", "Observed value": 4430}
